# Test system: NCI-H2126
# Protocol details: relative viability (nuclei count vs DMSO), 5 days (fraction); higher = more cells survive
# Condition summary: first compound 20 µM
Measure: relative viability

Worked examples, 2 compounds total:
Compound	Result
Cc1csc(=NC2CCCCC2)n1/N=C/c1ccc(O)c(O)c1O [MIM1] + COc1cccc2cc(-c3nc([C@H]4CC[C@H](C(=O)O)CC4)n4ncnc(N)c34)[nH]c12 [OSI-027] (partner 0.5 µM)	0.466
Cc1csc(=NC2CCCCC2)n1/N=C/c1ccc(O)c(O)c1O [MIM1] + N=C(N)NC(=N)NCCc1ccccc1 [Phenformin] (partner 250 µM)	0.391

Now, please, on to the next compound.
Query :: // map Cc1csc(=NC2CCCCC2)n1/N=C/c1ccc(O)c(O)c1O [MIM1] + CC(C)C[C@H](NC(=O)[C@H](Cc1ccccc1)NC(=O)c1cnccn1)B(O)O [Bortezomib] (partner 0.002 µM) to recorded relative viability (system: NCI-H2126)
Result :: 1

###

Measured relative viability values are reported for all entries that follow.
# Tested on: NCI-H727
# Protocol details: relative viability (nuclei count vs DMSO), 5 days (fraction); higher = more cells survive
# Condition summary: first compound 0.02 µM
Answer field: number only, no words.

Molecule	Quantitative readout
CCNC(=O)c1noc(-c2cc(C(C)C)c(O)cc2O)c1-c1ccc(CN2CCOCC2)cc1 [Luminespib] + Cc1nc(Nc2ncc(C(=O)Nc3c(C)cccc3Cl)s2)cc(N2CCN(CCO)CC2)n1 [Dasatinib] (partner 0.075 µM)	0.257

Now, please, on to the next molecule.
Query :: # query: relative viability of entry CN1CCN(CCOc2cc(OC3CCOCC3)c3c(Nc4c(Cl)ccc5c4OCO5)ncnc3c2)CC1 [Saracatinib] + C[C@]1(O)C[C@@H](c2nc(-c3ccc4ccc(-c5ccccc5)nc4c3)c3c(N)nccn32)C1 [Linsitinib] (partner 1 µM)
Result :: 0.284

###

Measured relative viability values are reported for all entries that follow.
# Tested on: NCI-H1651
# Protocol details: relative viability (nuclei count vs DMSO), 5 days (fraction); higher = more cells survive
# Condition summary: first compound 6.325 µM
Answer field: number only, no words.

Molecule	relative viability
Cc1csc(=NC2CCCCC2)n1/N=C/c1ccc(O)c(O)c1O [MIM1] + Cc1nc(NC(=O)N2CCC[C@H]2C(N)=O)sc1-c1ccnc(C(C)(C)C(F)(F)F)c1 [Alpelisib] (partner 2 µM)	0.793
Cc1csc(=NC2CCCCC2)n1/N=C/c1ccc(O)c(O)c1O [MIM1] + N=C(N)NC(=N)NCCc1ccccc1 [Phenformin] (partner 250 µM)	0.291

Query :: # query: relative viability of entry Cc1csc(=NC2CCCCC2)n1/N=C/c1ccc(O)c(O)c1O [MIM1] + COc1cc2c(Oc3ccc(NC(=O)C4(C(=O)Nc5ccc(F)cc5)CC4)cc3F)ccnc2cc1OCCCN1CCOCC1 [Foretinib] (partner 0.25 µM)
Result :: 0.648

Query :: # query: relative viability of entry Cc1csc(=NC2CCCCC2)n1/N=C/c1ccc(O)c(O)c1O [MIM1] + Nc1nc2[nH]cc(CCc3ccc(C(=O)N[C@@H](CCC(=O)O)C(=O)O)cc3)c2c(=O)[nH]1 [Pemetrexed] (partner 0.2 µM)
Result :: 0.476

###

# Test system: NCI-H1975
# Protocol details: relative viability (nuclei count vs DMSO), 5 days (fraction); higher = more cells survive
# Condition summary: first compound 0.2 µM
relative viability strictly less than 0.2 = label 1. Otherwise label 0.

Molecule	Assigned label
CN1CCN(CCOc2cc(OC3CCOCC3)c3c(Nc4c(Cl)ccc5c4OCO5)ncnc3c2)CC1 [Saracatinib] + CC(=O)Nc1cccc(-n2c(=O)n(C3CC3)c(=O)c3c(Nc4ccc(I)cc4F)n(C)c(=O)c(C)c32)c1 [Trametinib] (partner 0.02 µM)	label 0
CCNC(=O)c1noc(-c2cc(C(C)C)c(O)cc2O)c1-c1ccc(CN2CCOCC2)cc1 [Luminespib] + CC1(C)CCC(c2ccc(Cl)cc2)=C(CN2CCN(c3ccc(C(=O)NS(=O)(=O)c4ccc(N[C@H](CCN5CCOCC5)CSc5ccccc5)c(S(=O)(=O)C(F)(F)F)c4)cc3)CC2)C1 [Navitoclax] (partner 0.5 µM)	label 1
Cc1csc(=NC2CCCCC2)n1/N=C/c1ccc(O)c(O)c1O [MIM1] + Cc1nc(NC(=O)N2CCC[C@H]2C(N)=O)sc1-c1ccnc(C(C)(C)C(F)(F)F)c1 [Alpelisib] (partner 2 µM)	label 0
Cc1csc(=NC2CCCCC2)n1/N=C/c1ccc(O)c(O)c1O [MIM1] + Cc1cc(Nc2cc(N3CCN(C)CC3)nc(Sc3ccc(NC(=O)C4CC4)cc3)n2)n[nH]1 [Tozasertib] (partner 0.1 µM)	label 0
CCNC(=O)c1noc(-c2cc(C(C)C)c(O)cc2O)c1-c1ccc(CN2CCOCC2)cc1 [Luminespib] + COc1cc2c(Oc3ccc(NC(=O)C4(C(=O)Nc5ccc(F)cc5)CC4)cc3F)ccnc2cc1OCCCN1CCOCC1 [Foretinib] (partner 0.25 µM)	label 1
Cc1csc(=NC2CCCCC2)n1/N=C/c1ccc(O)c(O)c1O [MIM1] + O=C(CCCCCCC(=O)Nc1ccccc1)NO [Vorinostat] (partner 1 µM)	label 0

Query :: Does the reported relative viability of the following molecule sit strictly below 0.2? CN1CCN(CCOc2cc(OC3CCOCC3)c3c(Nc4c(Cl)ccc5c4OCO5)ncnc3c2)CC1 [Saracatinib] + Cc1cc(Nc2cc(N3CCN(C)CC3)nc(Sc3ccc(NC(=O)C4CC4)cc3)n2)n[nH]1 [Tozasertib] (partner 0.1 µM)
Result :: label 0

Query :: Does the reported relative viability of the following molecule sit strictly below 0.2? CCNC(=O)c1noc(-c2cc(C(C)C)c(O)cc2O)c1-c1ccc(CN2CCOCC2)cc1 [Luminespib] + CC(=O)c1c(C)c2cnc(Nc3ccc(N4CCNCC4)cn3)nc2n(C2CCCC2)c1=O [Palbociclib] (partner 0.5 µM)
Result :: label 1

Query :: Does the reported relative viability of the following molecule sit strictly below 0.2? CCNC(=O)c1noc(-c2cc(C(C)C)c(O)cc2O)c1-c1ccc(CN2CCOCC2)cc1 [Luminespib] + CC(C)C[C@H](NC(=O)[C@H](Cc1ccccc1)NC(=O)c1cnccn1)B(O)O [Bortezomib] (partner 0.002 µM)
Result :: label 1

Query :: Does the reported relative viability of the following molecule sit strictly below 0.2? Cc1csc(=NC2CCCCC2)n1/N=C/c1ccc(O)c(O)c1O [MIM1] + Nc1ncn([C@H]2C[C@H](O)[C@@H](CO)O2)c(=O)n1 [Decitabine] (partner 2 µM)
Result :: label 0

Query :: Does the reported relative viability of the following molecule sit strictly below 0.2? CCNC(=O)c1noc(-c2cc(C(C)C)c(O)cc2O)c1-c1ccc(CN2CCOCC2)cc1 [Luminespib] + Nc1nc2[nH]cc(CCc3ccc(C(=O)N[C@@H](CCC(=O)O)C(=O)O)cc3)c2c(=O)[nH]1 [Pemetrexed] (partner 0.2 µM)
Result :: label 1

Query :: Does the reported relative viability of the following molecule sit strictly below 0.2? CCNC(=O)c1noc(-c2cc(C(C)C)c(O)cc2O)c1-c1ccc(CN2CCOCC2)cc1 [Luminespib] + C[C@@H](Oc1cc(-c2cnn(C3CCNCC3)c2)cnc1N)c1c(Cl)ccc(F)c1Cl [Crizotinib] (partner 1 µM)
Result :: label 1

Query :: Does the reported relative viability of the following molecule sit strictly below 0.2? CCNC(=O)c1noc(-c2cc(C(C)C)c(O)cc2O)c1-c1ccc(CN2CCOCC2)cc1 [Luminespib] + Nc1ncn([C@H]2C[C@H](O)[C@@H](CO)O2)c(=O)n1 [Decitabine] (partner 2 µM)
Result :: label 1

Query :: Does the reported relative viability of the following molecule sit strictly below 0.2? Cc1csc(=NC2CCCCC2)n1/N=C/c1ccc(O)c(O)c1O [MIM1] + CS(=O)(=O)N1CCN(Cc2cc3nc(-c4cccc5[nH]ncc45)nc(N4CCOCC4)c3s2)CC1 [Pictilisib] (partner 1 µM)
Result :: label 0

Query :: Does the reported relative viability of the following molecule sit strictly below 0.2? CN1CCN(CCOc2cc(OC3CCOCC3)c3c(Nc4c(Cl)ccc5c4OCO5)ncnc3c2)CC1 [Saracatinib] + CC(=O)c1c(C)c2cnc(Nc3ccc(N4CCNCC4)cn3)nc2n(C2CCCC2)c1=O [Palbociclib] (partner 0.5 µM)
Result :: label 0

Query :: Does the reported relative viability of the following molecule sit strictly below 0.2? Cc1csc(=NC2CCCCC2)n1/N=C/c1ccc(O)c(O)c1O [MIM1] + C[C@]1(O)C[C@@H](c2nc(-c3ccc4ccc(-c5ccccc5)nc4c3)c3c(N)nccn32)C1 [Linsitinib] (partner 1 µM)
Result :: label 0

###

# Tested on: LC-2-ad
# Protocol details: relative viability (nuclei count vs DMSO), 5 days (fraction); higher = more cells survive
# Condition summary: first compound 0.02 µM
Measure: relative viability
Answer field: number only, no words.

Query :: # query: relative viability of entry CCNC(=O)c1noc(-c2cc(C(C)C)c(O)cc2O)c1-c1ccc(CN2CCOCC2)cc1 [Luminespib] + COc1cccc2cc(-c3nc([C@H]4CC[C@H](C(=O)O)CC4)n4ncnc(N)c34)[nH]c12 [OSI-027] (partner 0.5 µM)
Result :: 0.569

Query :: # query: relative viability of entry CCNC(=O)c1noc(-c2cc(C(C)C)c(O)cc2O)c1-c1ccc(CN2CCOCC2)cc1 [Luminespib] + CC(=O)Nc1cccc(-n2c(=O)n(C3CC3)c(=O)c3c(Nc4ccc(I)cc4F)n(C)c(=O)c(C)c32)c1 [Trametinib] (partner 0.02 µM)
Result :: 1.06

The reported numbers originate from the supplement of paper PMC10307832.
